Tested on: lymphocytic leukemia P388
Experiment: Lymphocytic leukemia P388 test (survival of transplanted mice)
Type: in vivo
Conditions: 25 mg./kg., i.p. days 1, 5 and 9
Procedure: Lymphocytic leukemia P388 test The animals used are mice, all of one sex, weighing a minimum of 18 g. and all within a 3 gram weight range. There are 5 or 6 animals per test group. […] The animals are weighed and survivors are recorded on a regular basis for 60 days. The median survival time and the ratio of survival time for treated (T)/control (C) animals are calculated. […]
Counter-ions that a name gives are not always drawn.
Overview of reported Median Survival across a group of compounds:
Just the number in days, nothing appended.

Compound	Unit abbreviation	Median Survival
Cc1ccc2c(c1)C(C=NNC1=NCCN1)c1ccccc1C2C=NNC1=NCCN1 (stereo not shown) [dihydrochloride]	days	16.0
Clc1cccc2c1C(C=NNC1=NCCN1)c1ccccc1C2C=NNC1=NCCN1 (stereo not shown) [dihydrochloride]	days	21.0
Clc1ccc2c(c1)C(C=NNC1=NCCN1)c1ccccc1C2C=NNC1=NCCN1 (stereo not shown) [dihydrochloride]	days	18.0

# next compound below
Query string: Please give the measured Median Survival for this compound: C(=NNC1=NCCN1)C1c2ccccc2C(C=NNC2=NCCN2)c2ccccc21 (stereo not shown)
Result string: 17.5

---

Overview of reported T/C × 100 across a group of compounds:
Test system: lymphocytic leukemia P388
Assay: Lymphocytic leukemia P388 test (survival of transplanted mice)
Type: in vivo
Settings: 25 mg./kg., i.p. days 1, 5 and 9; efficacy criterion ≥125%
Experimental: Lymphocytic leukemia P388 test The animals used are mice, all of one sex, weighing a minimum of 18 g. and all within a 3 gram weight range. There are 5 or 6 animals per test group. […] The animals are weighed and survivors are recorded on a regular basis for 60 days. The median survival time and the ratio of survival time for treated (T)/control (C) animals are calculated. […]
Structures can show the parent of a compound that is named as a salt.
Just the number in %, nothing appended.

Completed entries (count: 3):
Compound	Assay readout	Unit abbreviation	Measured result
Clc1cccc2c1C(C=NNC1=NCCN1)c1ccccc1C2C=NNC1=NCCN1 (stereo not shown) [dihydrochloride]	T/C × 100	%	221
Cc1ccc2c(c1)C(C=NNC1=NCCN1)c1ccccc1C2C=NNC1=NCCN1 (stereo not shown) [dihydrochloride]	T/C × 100	%	168
Clc1ccc2c(c1)C(C=NNC1=NCCN1)c1ccccc1C2C=NNC1=NCCN1 (stereo not shown) [dihydrochloride]	T/C × 100	%	180

Query string: Please give the measured T/C × 100 for this compound: C(=NNC1=NCCN1)C1c2ccccc2C(C=NNC2=NCCN2)c2ccccc21 (stereo not shown)
Result string: 159

Attribution: patent US4235996A
